Reported IC50 by item:
- tested-system: MEX-5 (Caenorhabditis elegans)
- Construct: The fragment of mex-5 containing the TZF domain (amino acids 236-350) was amplified; made in house; host or cells: Escherichia coli JM109
- Sequence (Q9XUB2 236-350): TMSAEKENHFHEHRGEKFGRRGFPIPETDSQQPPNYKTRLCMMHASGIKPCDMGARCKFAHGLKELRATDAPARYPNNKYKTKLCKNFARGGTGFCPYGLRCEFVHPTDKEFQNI
- protocol: Fluorescence polarization screening of MEX-5 binding to fluorescein-labeled TCR2 RNA
- run-parameters: further screening as described above (fluorescence polarization), dose response
reported-property: IC50 (µM)

- compound: "CCS(=O)(=O)Nc1ccccc1NS(=O)(=O)CC [BR]"
  reported-property: "IC50"
  unit-name: "µM"
  reading: 39
- compound: "COc1ccc(Cl)cc1C(=O)Nc1ccc(S(=O)(=O)Nc2nccs2)cc1 [BK]"
  reported-property: "IC50"
  unit-name: "µM"
  reading: 540
- compound: "O=C(CSc1nc2ccccc2s1)Nc1ccc(S(=O)(=O)Nc2nccs2)cc1 [DG]"
  reported-property: "IC50"
  unit-name: "µM"
  reading: 160
- compound: "Sc1nnc(COc2cccc3ccccc23)n1-c1ccccc1 [BO]"
  reported-property: "IC50"
  unit-name: "µM"
  reading: 75
- compound: "CC(=O)Oc1ccccc1-c1nc2s/c(=C3\\C(=O)N(CC(N)=O)c4ccccc43)c(=O)n2n1 [C]"
  reported-property: "IC50"
  unit-name: "µM"
  reading: 33
- compound: "O=C1C2CC=C(Cl)CC2C(=O)N1c1nnc[nH]1 (stereo not shown) [DJ]"
  reported-property: "IC50"
  unit-name: "µM"
  reading: 3.5
- compound: "COc1ccc(S(=O)(=O)Nc2ccccc2NS(=O)(=O)c2ccc(OC)cc2)cc1 [E]"
  reported-property: "IC50"
  unit-name: "µM"
  reading: 1.5

* * *

- tested-system: POS-1 (Caenorhabditis elegans, UniProt G5EF15)
- Construct: 6-his tag (N); made in house; host or cells: E. coli BL21 (DE3) Gold
- Sequence (G5EF15 80-180): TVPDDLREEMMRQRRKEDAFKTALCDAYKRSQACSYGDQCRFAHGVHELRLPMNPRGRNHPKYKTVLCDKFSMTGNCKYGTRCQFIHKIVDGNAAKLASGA
- protocol: Fluorescence polarization screening of POS-1 binding to fluorescein-labeled BMF018 RNA
- run-parameters: 192 μM test compound; score = polarization relative to no-drug and no-protein controls; 0.25 = 75% inhibition; lowest score = greatest inhibition; read-out: POS-1 score
reported-property: remaining activity at 192 µM (%)

- compound: "CCc1nnc(NS(=O)(=O)c2ccc(NCc3cc(Cl)cc(Cl)c3O)cc2)s1"
  reading: 11.9
- compound: "Sc1nnc(-c2cc(-c3ccccc3)nc3ccccc23)o1"
  reading: 24.2
- compound: "O=C1C2CC=C(Cl)CC2C(=O)N1c1nnc[nH]1 (centres unmarked)"
  reading: 13.8
- compound: "O=C(Oc1ccc2ccccc2c1)c1ccc2c(c1)C1C=CCC1C(C(=O)O)N2 (centres unmarked)"
  reading: 1.95
- compound: "Cc1sc(NC(=O)c2cnccn2)c(C(N)=O)c1C"
  reading: 25.4
- compound: "COC(=O)c1c(NC(=O)CCC(=O)O)sc2c1CCC(C(C)(C)C)C2 (centres unmarked)"
  reading: 14.4
- compound: "Cc1n[nH]c(SCc2cccc(CSc3nc(C)n[nH]3)c2)n1"
  reading: -0.0864
- compound: "O=C(CSc1nc2ccccc2s1)Nc1ccc(S(=O)(=O)Nc2nccs2)cc1"
  reading: 10.9
- compound: "O=C(Cn1cnc2ccccc2c1=O)Nc1ccc(S(=O)(=O)Nc2nccs2)cc1"
  reading: 11.9
- compound: "CC(=O)NC(c1ccco1)c1cc([N+](=O)[O-])c2cccnc2c1O (centres unmarked)"
  reading: 6.04
- compound: "Cc1ccc2c(Cl)c(C(=O)Nc3nnn[nH]3)sc2c1"
  reading: 23.8
- compound: "COc1cc(/C=C2\\C(=O)N(c3cccc(C(=O)O)c3)N=C2C)ccc1OC(=O)c1ccco1"
  reading: 19.7
- compound: "O=[N+]([O-])c1ccc(NS(=O)(=O)c2ccccc2)c(NS(=O)(=O)c2ccccc2)c1"
  reading: 11.6
- compound: "COc1cc2ccccc2cc1C(=O)NC(=S)Nc1cccc(C(=O)O)c1"
  reading: 24.3
- compound: "O=C(O)c1ccc(NC(=S)NC(=O)c2sc3ccccc3c2Cl)cc1"
  reading: 4.35
- compound: "CC1=NN(c2ccc(Cl)c(C(=O)O)c2)C(=O)/C1=C/c1cccc(OC(=O)c2cccs2)c1"
  reading: 6.9
- compound: "O=C(Nc1cc(NC(=O)c2ccccc2)cc(C(=O)Nc2ccc(O)cc2C(=O)O)c1)c1ccccc1"
  reading: 17.2
- compound: "CCc1nnc(NS(=O)(=O)c2ccc(NC(=O)c3cc4cc(OC)ccc4oc3=O)cc2)s1"
  reading: 18.1
- compound: "CCOC(=O)c1c(NC(=O)C2CC=CCC2C(=O)O)sc(C)c1-c1ccc(Cl)cc1 (centres unmarked)"
  reading: 20.3
- compound: "Cc1[nH]nc(-c2ccc(O)c(O)c2O)c1-c1ccccc1"
  reading: 4.3
- compound: "O=S(=O)(Nc1nc(-c2ccccc2)c(-c2ccccc2)o1)c1ccc(Cl)cc1"
  reading: 16
- compound: "Oc1ccc(Br)cc1-c1n[nH]c(=S)n1Cc1ccccc1"
  reading: 23.9
- compound: "CC1=NN(c2ccc(S(N)(=O)=O)cc2)C(=O)/C1=C\\c1ccc(OC(=O)c2cccs2)cc1"
  reading: 16.7
- compound: "O=[N+]([O-])c1cc(C2Nc3ccc4ccccc4c3C3C=CCC32)ccc1O (centres unmarked)"
  reading: 8.86
- compound: "COc1ccc(NC(=S)c2nc3ccccc3[nH]2)cc1"
  reading: 8.99
- compound: "COc1ccc(N2CC(C(=O)Nc3ccc(S(=O)(=O)Nc4nccs4)cc3)CC2=O)cc1 (centres unmarked)"
  reading: 6.51
- compound: "CC1(C)Cc2ccccc2-c2[nH]c3nnc(S)n3c(=O)c21"
  reading: 4.77
- compound: "O=C(NC(=S)Nc1ccccc1C(=O)O)c1ccc(-c2ccc(Cl)cc2)o1"
  reading: 25.4
- compound: "O=C(O)c1cc(NC(=O)c2cccc(N3C(=O)CCC3=O)c2)cc(C(=O)O)c1"
  reading: 14.6
